test system: RKO; assay: Stabilization of p53 level in RKO cells; assay type: functional, cell-based; settings: Homo sapiens
Activity calls are given as the source filed them. The calls are words filed in the database; no cut-off is given here.
Possible outcomes: active, inactive

Cc1ccc(-n2c3nc(=O)[nH]c(=O)c-3cc3c(C(F)(F)F)cccc32)cc1; inactive
O=c1nc2n(-c3ccccc3Cl)c3ccc([N+](=O)[O-])cc3cc-2c(=O)[nH]1; active
O=c1nc2n(-c3cccc(Cl)c3)c3ccc([N+](=O)[O-])cc3cc-2c(=O)[nH]1; active
O=c1nc2n(-c3ccc(Cl)cc3)c3ccc(C(F)(F)F)cc3cc-2c(=O)[nH]1; inactive
O=c1nc2n(-c3ccccc3Cl)c3cccc(Cl)c3cc-2c(=O)[nH]1; active
Cc1ccc(-n2c3nc(=O)[nH]c(=O)c-3cc3c(Cl)cccc32)cc1; active
O=c1nc2n(-c3ccc(Cl)cc3)c3cccc(Cl)c3cc-2c(=O)[nH]1; active
